Assay: Toxicity in […] at 10 mg/kg, sc assessed as rate of death
Assay type: organism-based
Design: dose 10 mg/kg, route subcutaneous
Settings: in vivo, read-out: Activity
Assignment: determine reported mortality for the given compounds.
Respond with the figure and its unit, in that order.

Exercise: # get_value(readout='mortality', item= c1cncc(CNC2CCCC2)c1 )
Key: 0%

Exercise: # get_value(readout='mortality', item= c1cncc(CNCCC2CCCO2)c1 (stereo unspecified) )
Key: 0%

Exercise: # get_value(readout='mortality', item= Clc1ccc(CNCCc2ccco2)cn1 )
Key: 0%

Exercise: # get_value(readout='mortality', item= c1cncc(CNCCc2ccco2)c1 )
Key: 0%

Exercise: # get_value(readout='mortality', item= CN1CCC[C@H]1c1cccnc1 )
Key: 50%

Exercise: # get_value(readout='mortality', item= Clc1ccc(CNC2CCCC2)cn1 )
Key: 0%

---

Assignment: determine reported inhibition in vivo at 10 mg/kg for the given molecules.
Test system: Mus musculus
Assay: Analgesic activity in mice at 10 mg/kg, sc by acetic acid writhing test
Format: functional
Details: route subcutaneous
Respond with the figure and its unit, in that order.

Exercise: # get_value(readout='inhibition in vivo at 10 mg/kg', item= CN1CCC[C@H]1c1cccnc1 )
Key: 100%

Exercise: # get_value(readout='inhibition in vivo at 10 mg/kg', item= Clc1ccc(CNC2CCCC2)cn1 )
Key: 37%

Exercise: # get_value(readout='inhibition in vivo at 10 mg/kg', item= c1cncc(CNCCC2CCCO2)c1 (stereo unspecified) )
Key: 56%

Exercise: # get_value(readout='inhibition in vivo at 10 mg/kg', item= c1cncc(CNC2CCCC2)c1 )
Key: 0%

Exercise: # get_value(readout='inhibition in vivo at 10 mg/kg', item= c1cncc(CNCCc2ccco2)c1 )
Key: 0%

Exercise: # get_value(readout='inhibition in vivo at 10 mg/kg', item= Clc1ccc(CNCCc2ccco2)cn1 )
Key: 41%

Numbers sourced from ChEMBL document CHEMBL1146105.
